measurement_notes: antimalarial activity against Dd2 strain (AID 2302)
condition_description: P. falciparum Dd2 in RBCs, LDH growth readout, 72 h; at 2 µM; active compounds read high
Mark N for growth inhibition values under 50%, and Y for everything at or above.

Is the recorded value of growth inhibition equal to or greater than 50% for this compound? O=C(C=Cc1ccc(Br)cc1)NC1CCC(CN2CCC(c3c[nH]c4ccccc34)CC2)CC1 (stereo not drawn)
Y

# bool: growth inhibition of CC(=O)Nc1ccc(CN2CCC(N(C)c3cc(NC(=O)c4ccc(F)cc4)ccn3)CC2)cc1 >= 50%
N

Check if growth inhibition >= 50% (inclusive). Item: CC(=O)C1(c2ccccc2)CCN(CCC2(c3ccc(Cl)c(Cl)c3)CN(C(=O)c3cccc(Cl)c3)CCO2)CC1 (stereo not drawn)
Y

In plain terms: is recorded growth inhibition at least 50% for O=C(Cc1cc(=O)oc2cc(O)ccc12)NC1CCC(CN2CCC(c3c[nH]c4ccccc34)CC2)CC1 (stereo not drawn) ?
N

Quick check: does O=C(/C=C/c1ccccc1Cl)NC1CCC(CN2[C@@H]3CC[C@H]2CC(c2c[nH]c4ccccc24)C3)CC1 (stereo partly drawn) have growth inhibition greater than or equal to 50%?
Y

Quick check: does CC(=O)C1(c2ccccc2)CCN(CCC2(c3ccc(Cl)c(Cl)c3)CN(C(=O)Nc3cccc(C(F)(F)F)c3)CCO2)CC1 (stereo not drawn) have growth inhibition greater than or equal to 50%?
Y

Does growth inhibition meet or surpass 50% for C/C=C1/CN2CC[C@H]1C[C@H]2[C@H](O)c1ccnc2ccc(O)cc12 ?
N

Source of measurements: PubChem BioAssay
